- experimental system: T1, naked peptide MEDYVNFNFT (human)
- T1 peptide: MEDYVNFNFT
- method description: ELISA naked peptide; scFv 1 ug/mL; repI
Assignment: determine reported OD450 for the given binders.
Field: numeric (OD). Do not append units.

Request: Indicate its recorded OD450; the binder in question is Comparative antibody 2 (Comp-2) scFv, 243LO326 (VH SEQ ID NO: 51 and VL SEQ ID NO: 52 of WO 2022/195028 A2), His-tagged (scFv) scFv: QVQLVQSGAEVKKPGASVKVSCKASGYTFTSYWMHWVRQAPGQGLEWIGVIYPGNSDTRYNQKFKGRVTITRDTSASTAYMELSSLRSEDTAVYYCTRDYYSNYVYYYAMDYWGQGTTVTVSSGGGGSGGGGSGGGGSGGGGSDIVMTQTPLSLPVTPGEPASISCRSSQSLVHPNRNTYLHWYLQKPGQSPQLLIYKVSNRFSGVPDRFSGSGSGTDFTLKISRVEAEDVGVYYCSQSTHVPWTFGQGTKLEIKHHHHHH
Response: 0.04

Request: Provide only the value of recorded OD450 for CCR9_HUM2 scFv (humanized anti-CCR9 scFv, SEQ ID NO: 17 with C-terminal 6xHis tag) (scFv) scFv: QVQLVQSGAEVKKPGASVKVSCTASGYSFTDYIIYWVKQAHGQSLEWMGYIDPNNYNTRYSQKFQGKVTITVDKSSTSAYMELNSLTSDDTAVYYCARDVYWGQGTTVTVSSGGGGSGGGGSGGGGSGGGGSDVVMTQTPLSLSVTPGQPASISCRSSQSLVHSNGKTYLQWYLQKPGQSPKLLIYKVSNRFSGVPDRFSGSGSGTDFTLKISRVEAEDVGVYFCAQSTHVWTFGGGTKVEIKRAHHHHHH
Response: 0.84

Request: Specify reported OD450 for the binder shown: Comparative antibody 3 (Comp-3) scFv, SR_92R (Somovilla-Crespo et al. 2018), His-tagged (scFv) scFv: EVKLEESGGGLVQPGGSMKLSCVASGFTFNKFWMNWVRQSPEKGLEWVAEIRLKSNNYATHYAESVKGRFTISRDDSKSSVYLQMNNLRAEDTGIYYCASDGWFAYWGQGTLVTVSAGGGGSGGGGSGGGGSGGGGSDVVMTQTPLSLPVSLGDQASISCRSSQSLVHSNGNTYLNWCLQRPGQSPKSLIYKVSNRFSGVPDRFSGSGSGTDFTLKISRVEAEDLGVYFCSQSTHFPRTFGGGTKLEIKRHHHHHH
Response: 0.05

Request: Quickly give me recorded OD450 for Comparative antibody 1 (Comp-1) scFv, SEQ ID NO: 10 from WO2023/037125 A1, His-tagged (scFv) scFv: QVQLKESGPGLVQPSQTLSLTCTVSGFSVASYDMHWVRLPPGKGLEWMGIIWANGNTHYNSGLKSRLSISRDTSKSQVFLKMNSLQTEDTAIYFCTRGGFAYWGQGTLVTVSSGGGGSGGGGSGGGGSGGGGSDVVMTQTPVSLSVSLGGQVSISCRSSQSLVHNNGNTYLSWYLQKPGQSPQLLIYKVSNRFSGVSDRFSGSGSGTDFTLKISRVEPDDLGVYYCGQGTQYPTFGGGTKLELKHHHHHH
Response: 0.05
